experiment: Toxicity liver stage against HepG2, at 10uM; type: cell-based; design: test concentration 10 uM, cell line HepG2-A16-CD81EGFP; details: human, HepG2-A16-CD81EGFP cells; read-out: INHIBITION
Please provide measured cytotoxicity at 10 µM for the entries that follow.
Your answer should be a plain number; it is taken to be in %.

Would you kindly share the measured cytotoxicity at 10 µM for O=C(CSCC1CC1)N1CCC2(CCCN(C3CCOCC3)C2=O)C1 (stereo unspecified) ?
-127

Same for CC(C)C(O)CNC(=O)Nc1cccc(-c2nccs2)c1 (stereo unspecified)
-5.5

What do we get for Cc1c(CN2CCCC2(C)C(=O)N2CCOCC2)cnn1C (stereo unspecified) ?
-6.29

Quick one: CCC1=NN2C(=N)/C(=C/c3cccc(Cl)c3)C(=O)N=C2S1
-11.8

Entry Cc1n[nH]c(C)c1-c1cnc(CC2CCN(C(C)C)CC2)cn1 please
22.3

Subsequent entry: CN(CCn1cccn1)c1cc(C(F)(F)F)nc(-c2cccnc2)n1
-3.63

---

experiment: Toxicity liver stage against HepG2, at 10uM; format: cell-based; set-up: test concentration 10 uM, cell line HepG2-A16-CD81EGFP; conditions: human, HepG2-A16-CD81EGFP cells; read-out: INHIBITION
Assign cytotoxicity at 10 µM to each entry below.
Be sure to follow the number with its unit.

So what's the measured cytotoxicity at 10 µM for this one? CCN(Cc1c(C)nn(CC)c1C)S(=O)(=O)c1cn(C)nc1C
7.36%

And what about the compound COCCNC(=O)NCc1cccc(-n2ccnc2)c1 ?
16.1%

Cool, now CN1CCCN(C[C@H]2C[C@H](CO)CN(Cc3cccnc3N)C2)CC1
-10.7%

Moving on to Cc1nc(C2CCCN(C(=O)CN3CCCC3=O)C2)sc1C (stereo unspecified)
-6.96%

Moving on to NC(=O)CN1C(=O)CO[C@H]2CN(Cc3ccc(C(F)(F)F)cc3)C[C@H]21
0.523%

// repeat for Cc1cccc(N2CCN(S(=O)(=O)CCN)CC2)c1 and report
0.0723%

---

Give measured cytotoxicity at 10 µM for each item. Keep answers brief.
experiment: Toxicity liver stage against HepG2, at 10uM; format: cell-based; parameters: test concentration 10 uM, cell line HepG2-A16-CD81EGFP; settings: human, HepG2-A16-CD81EGFP cells; read-out: INHIBITION
The response must be a number in % with no trailing unit.

Record request: cytotoxicity at 10 µM value, item Cc1cc(=O)n(C)cc1NC(=O)Cc1ccc(C(F)(F)F)cc1
-14

Now this one: O=C(NC1CCN(C2CC2)C1)c1cn(-c2ccc(F)cc2)nn1 (configuration not stated)
-2.25

What about this compound? Cc1cc(C(=O)NC2=NCCS2)c(C)n1-c1ccccn1
6.25

Can you handle O=C(CCn1ccccc1=O)N1CCCC(COc2ccc(F)cc2)C1 (configuration not stated) next?
-4.19

Now consider Cc1c(CNC2CCN(c3ccccc3OC(F)F)C2)cnn1C (configuration not stated) .
-1.77

Try the compound COc1ccc(F)cc1C[S+]([O-])CC(=O)NCC(C)C (configuration not stated)
-5.95

Repeat with CCN(CC)S(=O)(=O)c1cnccc1N1CCN(C(C)C)CC1
-5.57

Same for O=S(=O)(Cc1ccc(F)c(Cl)c1)NC(CO)c1ccco1 (configuration not stated)
-3.49

Next compound up: c1cc(CN2CC[C@H]3C[C@H](c4nc(C5CC5)cs4)O[C@@H]3C2)ccn1
8.81

And the next one, NC(=O)CN1CCC(NC(=O)Nc2nccs2)CC1 ?
-5.9

Can you check O=C(C1CCCCO1)N1CCc2ncnc(NCCO)c2CC1 (configuration not stated) next?
7.94

What about CCn1cnnc1CNC(=O)NC(C)C(C)C (configuration not stated) ?
-6.15

---

Assign cytotoxicity at 10 µM to each entry below.
experiment: Toxicity liver stage against HepG2, at 10uM; assay type: cell-based; set-up: test concentration 10 uM, cell line HepG2-A16-CD81EGFP; settings: human, HepG2-A16-CD81EGFP cells; read-out: INHIBITION
A number alone suffices; assume %.

Request the reported cytotoxicity at 10 µM associated with Cc1cc(CN2CCN(C(=O)NC(C)Cn3ccnc3)CC2)no1 (stereo unspecified)
-8.54

Next up: O=C(CCc1ccccc1)N1CCN(C(=O)c2ccc[nH]2)CC1
-5.04

Also, N#CCCN(CC1CC1)S(=O)(=O)c1cccc(Cl)c1 please.
9.09

Proceed to CCc1nnc(NCc2cccc(OC)c2OC)o1
6.79

Thanks! And CC(=O)N(C)C(c1cccc(F)c1)c1ccccn1 (stereo unspecified) ?
-1.63

Another compound to look at: CN(C)c1nc(N2CCCC2)nc2c1CCN(Cc1nccn1C)CC2
-97.2

---

Provide the recorded cytotoxicity at 10 µM for the entries that follow.
assay: Toxicity liver stage against HepG2, at 10uM; type: cell-based; parameters: test concentration 10 uM, cell line HepG2-A16-CD81EGFP; conditions: human, HepG2-A16-CD81EGFP cells; read-out: INHIBITION
Record the value in %, omitting the unit from your answer.

Name the recorded cytotoxicity at 10 µM for Cc1nc(-c2ccc(Cl)s2)sc1C(=O)NCCS(N)(=O)=O .
-2.09

Queued: CC(=O)N[C@@H]1CN(c2nc(CO)cs2)C[C@H]1c1ccc(C)o1
-47

Can you check CCCn1c(NCCc2ccccc2)nc2c(C)nn(C)c2c1=O next?
66.4

Same again, this time with CCNC(=O)COc1cc(CC)c2c(C)nn(-c3ccc(C)cc3)c2n1
0.409

Now give it for CC(C)CCc1nc(CN2CCOC(Cn3cncn3)C2)cs1 (centres undefined) too.
-6.06

Same read-out for Cc1ccc(-c2ncc(C(=O)N3CCN4CCCCC4C3)c(O)n2)cc1 (centres undefined) ?
-7.82

Also, Cn1cnc2c1C(C(=O)N1CCOCC1)N(C(=O)c1ccccc1)CC2 (centres undefined) please.
-0.388

// same read-out, input: COc1ccc(Cn2ccnc2)cc1F
-7.27

Also, O=C(CC1CCCCC1)NC1CCCc2nc(N3CCOCC3)ncc21 (centres undefined) please.
-5.24

Proceed to NC(=O)c1ccc(N2CCCCC2)c(NC(=O)c2cc(F)ccc2F)c1
7.57

Note, next up: CCc1nc(C2CCCN(C(=O)c3ccc(Cl)cc3)C2)no1 (centres undefined)
5.71

Cool, now CC(C(=O)Nc1ccnn1C(C)C)N1CCc2nn(C)c(=O)cc2C1 (centres undefined)
3.95

Try the compound CN(C)S(=O)(=O)N1CCCC1c1cccc(-n2ccnc2)n1 (centres undefined)
-3.75

Would you kindly repeat that for CCOc1ncccc1CNC(=O)N1CCCC1c1ccsc1 (centres undefined) ?
-7.69

Next entry: O=C1OCCCN1Cc1nc(-c2ccncc2)no1
6.77

Continue with CCOC(=O)CNC(=O)C1OC(c2ccccc2)=NN1C(C)=O (centres undefined)
0.53

Next up: O=C(NCC1CC1)Nc1cccc(N2CCN(CC3CC3)CC2)c1
-13.3

Lookup CC(=O)Nc1ccc(CC(=O)N2CC(S(=O)(=O)C3CCCCC3)C2)cc1
-12.8

Would you mind doing CN(C)CC(=O)N1C[C@@H](Oc2ccccn2)[C@H]2OCCC[C@H]21 as well?
9.11

# repeat for COc1ccc(CN2CCC3(CC2)CCN(c2cnn(C)c2)C3=O)cc1
-85.6

Check Cc1nc(CNc2ccc(C(=O)NCc3ccco3)cc2C)no1 too.
5.38

Now consider Cc1ccc(-c2nnc(C(C)NCCn3cc(C)cn3)o2)cc1 (centres undefined) and answer again.
-15.8

What about this compound? Cc1[nH]ccc1C(=O)N[C@H]1CN(S(C)(=O)=O)C[C@@H]1C1CC1
3.28

Try this compound too: COc1cc(Oc2cnc3ccccc3n2)ccc1CN1CCCC1
5.27

---

Exercise: for every item that follows, state its recorded cytotoxicity at 10 µM.
experiment: Toxicity liver stage against HepG2, at 10uM; assay type: cell-based; design: test concentration 10 uM, cell line HepG2-A16-CD81EGFP; details: human, HepG2-A16-CD81EGFP cells; read-out: INHIBITION
Write the number in % without appending the unit.

I'd like to know its cytotoxicity at 10 µM. The compound in question is Cc1nnc(NC(=O)CN2CCCC2c2noc(C3CC3)n2)s1 (configuration not stated)
5.22

Moving on to CCOc1ccccc1C(=O)N1CCCC(O)(CN(C)C)C1 (configuration not stated)
-1.73

Please give the result for CC(C)N(C)CCCNC(=O)c1cnn(C(C)(C)C)c1C(F)(F)F too.
7.25

Repeat with CCOCCCC(=O)NCCC(=O)N1CCN(c2ccccn2)CC1
-4.76

Note, next up: COc1cccc([C@@]2(O)CC[C@@H]3CN(C(=O)c4ccn(C)n4)C[C@@H]32)c1
2

Item: COC(C)c1cccc(NCc2ccsc2)c1 (configuration not stated)
-4.53

Field entry: Cc1nn(C)c(N(C)C)c1CNCc1ccc(OCCN(C)C)cc1
-4.89

Note, next up: O=C(NCCn1ccnc1)N1CCCC1c1ccc2c(c1)OCCO2 (configuration not stated)
-8.16

Param item: CCn1nnc2c1C(COCC(=O)N(C)C)CN(Cc1ccco1)C2 (configuration not stated)
-4.96

Record: CS(=O)(=O)N(Cc1ccon1)c1ccc(F)cc1
2.24

// repeat for CCOc1cccnc1C(=O)N1CCC(c2ccccc2OC)C1 (configuration not stated) and report
7.71

Moving on to O=C(CCc1nc(Cl)n[nH]1)N1C[C@H](CO)C[C@H](CN2CCCC2)C1
0.77

Also need COc1cccc(OCCc2nc3c(cc2C(N)=O)CCC3)c1 , thanks.
7.32

What would you report for Cc1cc(C)n(CC2CCCN2CC(=O)Nc2nncs2)n1 (configuration not stated) ?
12.1

Same lookup for O=C(Cc1ccccc1)N1CCN(CC(O)c2ccc(F)cc2)CC1 (configuration not stated) , please.
-13.8

How about CC(O)c1cn(Cc2ccc(Cl)cc2)nn1 (configuration not stated) ?
8.75

Moving on to Cc1cc(CN(CC(N)=O)CC(C)C)on1
6.36

Another compound: CC(C)NC(=O)N1CCN(S(=O)(=O)C2CC2)CC2(CC(=O)N(C)C2)C1 (configuration not stated)
1.11

Now consider O=C1CCC2(CCN(Cc3ncccn3)CC2)CN1CCCO and answer again.
-8.11

// same read-out, input: CCS(=O)(=O)N1CCC2(CC1)CN(C(=O)N(C)C)Cc1ccccc12
2.67

Another: Cc1nc(C2CCCN2Cc2cc(Cl)c3c(c2)OCO3)no1 (configuration not stated)
7.51

Also Cc1nn(C)cc1C1=NS(=O)(=O)N(C)C(C(=O)Nc2ccc(Br)cc2)=C1 , if possible.
3.46

Another: CCCc1nnc(N(C)CC2CCN(CC(C)C)CC2)o1
6.05

Next up: CN1CCCCCC1C(=O)NCCCn1ncc2ccccc21 (configuration not stated)
-1.43

Repeat with Cc1ccc(S(=O)(=O)NC(C)C#N)cc1Br (configuration not stated)
0.727

Ok, now CCCn1ncc(CN(CCN(C)C)Cc2ccsc2)c1C
12.2

Repeat with N#Cc1cccc(CN2CC3(CCCCN3c3cncnc3)CC2=O)c1 (configuration not stated)
2.53

And for CCn1cc(CNC2CCN(c3cccc(C)c3C)CC2)cn1 ?
-9.99

Check Cn1c(=NC(=O)CSCC(=O)Nc2nccs2)sc2ccccc21 too.
-1.81

What about CN(Cc1nccn1C)c1nccc(N2CCCC(O)C2)n1 (configuration not stated) ?
-8.29

Request: O=C(NCCc1ccc(F)cc1)C1CN(C(=O)Cn2cncn2)C1
3.54

Another compound to check: Cc1noc(C)c1CN1CCC2(CCN(Cc3cccc(F)c3)CC2)C1
-122

Same lookup for CN1CCC(Cc2cc(Nc3ncccn3)ncn2)CC1 , please.
1.05

And the next one, CCOc1ccc(-n2nc(C)c(CC(C)=O)c2C)cc1C(N)=O ?
7.09

What do you have for COCCNC(=O)Nc1ccc(-n2cncn2)c(F)c1 ?
-0.0868

Could you do the same for Cn1ccnc1CN1C[C@@H](F)[C@@H](OCc2nc3cnccc3[nH]2)C1 , please?
3.39

Repeat with O=C(N[C@@H]1CCC[C@@H](n2ccnc2)[C@@H]1O)c1ccc2c(c1)CCCC2
-11.3

What would you report for O=C1CC(N(C(=O)c2ccc(Oc3ccccc3)cc2)C2CC2)C(=O)N1 (configuration not stated) ?
-2.94

Then this compound: Cc1nc(CN2C[C@@H]3COC[C@]3(COCC(=O)N(C)C)C2)cs1
1.41

What do you get for Cc1csc(NC(=O)c2ccc(NC(=O)N3CCOCC3)cc2)n1 ?
1.11

Subsequent entry: COc1cc(C)ccc1OCc1nc(C(=O)N2CCC(C)CC2)co1
-45

And O=C([C@@H]1C[C@H]2[C@H](CCN2Cc2nccs2)O1)N1CCOCC1 ?
-8.66

How about this compound: O=C1CC(c2ccncc2)C2(CCN(CCc3ccccc3)CC2)N1 (configuration not stated)
-1.58

Also need Cn1ccnc1C(=O)N1CCC2(CC1)CC(Oc1cccnc1)CO2 (configuration not stated) , thanks.
3.04

# repeat for COc1ccc(COCC(O)CNC(=O)Cc2ccc(C)cc2)cc1 (configuration not stated)
-5.62

Same thing, different compound: CC(=O)Nc1ncc(S(=O)(=O)N2CCN(C3CCCCC3)CC2)s1
-4.5

Also need COCCCn1ccc(NS(=O)(=O)c2cc(F)c(C)cc2F)n1 , thanks.
19.1

Just for reference, ChEMBL document CHEMBL4513216 is where these values come from.
